# maps each entry to its log10(Kb)
# tested-system: β2 receptors, guinea pig trachea (Cavia porcellus)
# Sequence (Q8K4Z4 whole entry): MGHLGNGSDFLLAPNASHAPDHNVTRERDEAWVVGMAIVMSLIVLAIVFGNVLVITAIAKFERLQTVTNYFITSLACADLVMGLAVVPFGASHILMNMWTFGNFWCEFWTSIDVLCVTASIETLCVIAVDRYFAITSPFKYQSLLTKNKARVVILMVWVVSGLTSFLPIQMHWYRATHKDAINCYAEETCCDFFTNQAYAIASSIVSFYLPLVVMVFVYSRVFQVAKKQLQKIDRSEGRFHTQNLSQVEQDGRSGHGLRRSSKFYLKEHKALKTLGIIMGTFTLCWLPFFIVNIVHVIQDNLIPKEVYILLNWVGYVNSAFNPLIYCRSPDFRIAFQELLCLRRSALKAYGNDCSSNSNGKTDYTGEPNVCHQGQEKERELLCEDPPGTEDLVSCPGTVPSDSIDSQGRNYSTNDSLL
# experiment-summary: cell-based
# measurement-parameters: Table IV; mean, n ≥ 2, range ≤ ± 0.2 units; read-out: pA2 Trachea (converted)
quantity-measured: log10(Kb) (log10 of the value in nM)

• CCOC(=O)CCc1ccc(OCC(O)CNCCNC(C)=O)cc1 (centres unmarked) [No. 9 (Table IV)] = 2.50
• CCOC(=O)CCc1ccc(OCC(O)CNC(C)(C)CNC(=O)N2CCOCC2)cc1 (centres unmarked) [No. 19 (Table IV)] = 2.30
• CCOC(=O)CCc1ccc(OCC(O)CNC(C)(C)CNC(N)=O)cc1 (centres unmarked) [No. 13 (Table IV)] = 2.60
• CCOC(=O)CCc1ccc(OCC(O)CNCCNC(=O)Cc2ccccc2)cc1 (centres unmarked) [No. 12 (Table IV)] = 3.10
• CCOC(=O)CCc1ccc(OCC(O)CNC(C)(C)CNS(=O)(=O)N(C)C)cc1 (centres unmarked) [No. 15 (Table IV)] = 2.50
• CCOC(=O)CCc1ccc(OCC(O)CNC(C)(C)CNC(=O)C2CCCCC2)cc1 (centres unmarked) [No. 11 (Table IV)] = 2.60
• CCOC(=O)CCc1ccc(OCC(O)CNCCNC(=O)C(C)C)cc1 (centres unmarked) [No. 10 (Table IV)] = 2.60
• CCOC(=O)CCc1ccccc1OCC(O)CNCCNC(=O)C(C)C (centres unmarked) [Example 6] = 1.30
